The origin of these recorded values is patent EP0417987B1.

assay: pH of the rinse water after adding rinse conditioner to the last rinse cycle of a machine wash; assay type: physicochemical; conditions: 90 mls rinse conditioner (about 200 ppm amine) in last rinse cycle; pH adjuster conc 0.9 M in product
Structures can show the parent of a compound that is named as a salt.
readout.name: rinse pH

O=C(O)CC(=O)O [Malonic, malonic acid] = 3.4
O=P(O)(O)O [o-H₃PO₄, orthophosphoric acid] = 4.6
Cl [HCl] = 4.4
O=C(O)CC(O)(CC(=O)O)C(=O)O [Citric, citric acid] = 3.8
